Data provenance: patent US11319324B2

Experimental Target: human P2X3 receptor (Homo sapiens, UniProt P56373)
Sequence (P56373 whole entry): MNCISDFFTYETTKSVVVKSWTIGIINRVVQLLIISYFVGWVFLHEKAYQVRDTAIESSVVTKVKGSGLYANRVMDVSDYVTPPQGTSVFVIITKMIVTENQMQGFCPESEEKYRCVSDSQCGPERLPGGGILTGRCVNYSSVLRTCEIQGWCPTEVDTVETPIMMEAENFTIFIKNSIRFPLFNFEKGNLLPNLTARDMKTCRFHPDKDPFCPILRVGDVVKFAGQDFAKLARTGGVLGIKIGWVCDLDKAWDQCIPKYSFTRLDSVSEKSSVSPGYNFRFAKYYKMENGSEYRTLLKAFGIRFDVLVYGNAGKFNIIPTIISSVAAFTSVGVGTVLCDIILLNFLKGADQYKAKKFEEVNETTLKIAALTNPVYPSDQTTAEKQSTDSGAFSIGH
Assay Comment: Intracellular calcium measurement to assess antagonist activity at human P2X3 receptors (hP2X3 CHO), photina luminescence
Format: cell-based
Set-up: expressed in transfected cells; host or cells: Chinese hamster ovary (CHO) cells
Condition Description: column 2), CHO cells, agonist α,β-methylene-ATP at EC50
Endpoint Label: IC50 (nM)

For orientation, consider the following solved cases.
>>> measured("CC(C)N1Cc2c(n(CC(=O)Nc3ccc(F)cn3)c3cc(C(C)(C)O)nn3c2=O)C1=O")
115
>>> measured("CC(C)N1Cc2c(n(CC(=O)Nc3ccc(F)cn3)c3cc(C4CCN(S(C)(=O)=O)C4)nn3c2=O)C1=O (racemic)")
29

a: CC(C)N1Cc2c(n(CC(=O)Nc3ccc(F)cn3)c3cc(NC(=O)COCc4ccccc4)nn3c2=O)C1=O
b: CCc1cc2n(CC(=O)Nc3ccc(F)cn3)c3c(c(=O)n2n1)CN(CC1CCNCC1)C3=O.Cl
c: CNc1cc2n(CC(=O)Nc3ccc(F)cn3)c3c(c(=O)n2n1)CN(C(C)C)C3=O
d: C[C@H](O)CN1Cc2c(n(CC(=O)Nc3ccc(F)cn3)c3cc(C(C)(C)C)nn3c2=O)C1=O
Order these by IC50, descending, and give the full ranking. Use the labels to give the requested order.
b, d, c, a

---

Experimental Target: human P2X2/3 receptors (Homo sapiens, UniProt P56373+Q9UBL9)
Construct: expressed in transfected cells; host or cells: human astrocytoma 1321N1 (1312N1 [sic])
Sequence (P56373 whole entry): as above
Sequence (Q9UBL9 whole entry): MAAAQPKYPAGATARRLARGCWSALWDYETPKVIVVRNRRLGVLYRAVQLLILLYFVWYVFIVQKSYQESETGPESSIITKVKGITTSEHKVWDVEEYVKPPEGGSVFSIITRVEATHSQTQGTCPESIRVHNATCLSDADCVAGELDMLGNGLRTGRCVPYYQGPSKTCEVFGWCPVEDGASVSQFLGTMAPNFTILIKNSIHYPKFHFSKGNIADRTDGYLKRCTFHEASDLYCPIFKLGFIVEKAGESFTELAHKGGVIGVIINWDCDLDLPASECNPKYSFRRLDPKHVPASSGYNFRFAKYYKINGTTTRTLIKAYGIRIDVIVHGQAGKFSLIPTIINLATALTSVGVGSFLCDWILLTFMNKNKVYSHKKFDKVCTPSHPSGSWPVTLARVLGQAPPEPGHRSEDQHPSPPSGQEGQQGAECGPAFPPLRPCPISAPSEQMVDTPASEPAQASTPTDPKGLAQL
Assay Comment: Intracellular calcium measurement, antagonist activity at human P2X2/3 receptors (hP2X23 1321N1), Fluo8
Assay type: cell-based
Condition Description: column 4); 1321N1 cells, human P2X2/3, Fluo8, agonist ATP at EC50; read-out: 4) hP2X2/3 IC50 [nM] (1321N1)
Endpoint Label: IC50 (nM)

>>> measured("CCc1cc2n(CC(=O)Nc3ccc(F)cn3)c3c(c(=O)n2n1)CN(C[C@@H]1CN(C(=O)OC(C)(C)C)CCO1)C3=O")
3450
>>> measured("COC[C@H](C)N1Cc2c(n(CC(=O)Nc3ccc(F)cn3)c3cc(-c4cc(C)ncc4C)nn3c2=O)C1=O")
1400
>>> measured("CCc1cc2n(CC(=O)Nc3ccc(Cl)cn3)c3c(c(=O)n2n1)CN(C(C)C)C3=O")
5450
>>> measured("COC[C@H](C)N1Cc2c(n(CC(=O)Nc3ccc(F)cn3)c3cc(C4CC4)nn3c2=O)C1=O")
6950
>>> measured("CCc1cc2n(CC(=O)Nc3ccc(F)cn3)c3c(c(=O)n2n1)CN(Cc1cccnc1)C3=O")
5000
>>> measured("CC(C)(C)c1cc2n(CC(=O)Nc3ccc(Cl)cn3)c3c(c(=O)n2n1)CN(C1COC1)C3=O")
8100
>>> measured("COCCN1Cc2c(n(CC(=O)Nc3ccc(F)cn3)c3cc(C4CC4)nn3c2=O)C1=O")
4850
>>> measured("CC(C)N1Cc2c(n(CC(=O)Nc3ccc(F)cn3)c3cc(C4CC4)nn3c2=O)C1=O")
9950
>>> measured("CC(C)N1Cc2c(n(CC(=O)Nc3ccc(F)cn3)c3cc(NC(=O)OC(C)(C)C)nn3c2=O)C1=O")
1900
>>> measured("CCc1cc2n(CC(=O)Nc3ccc(F)cn3)c3c(c(=O)n2n1)CN(C[C@H]1CN(C(C)=O)CCO1)C3=O")
8000

I: CCc1cc2n(CC(=O)Nc3ccc(F)cn3)c3c(c(=O)n2n1)CN(Cc1ccncc1)C3=O
II: CC(C)Cc1cc2n(CC(=O)Nc3ccc(F)cn3)c3c(c(=O)n2n1)CN(C(C)C)C3=O
Identify the item whose IC50 is the smaller number: I or II I would appreciate it if you answered with the label of your choice.
II
(II: 1870 nM, I: 10500 nM)
